- Tested on: HCC1954 (Breast Carcinoma)
- experimental_details: combination Emax (second highest fraction inhibited in the dose matrix, 72 h); higher = more inhibition; extreme values may be limits of the assay
Provide the reported combination Emax of each item.
API note: the answer field is a bare number with no unit suffix.

# input Hello, I am looking for reported combination Emax with HCC1954 (Breast Carcinoma) for COc1cccc(OCCCN)c1-c1cc(Nc2cnc(C#N)cn2)n[nH]1 [Prexasertib] + CCc1c2c(nc3ccc(O)cc13)-c1cc3c(c(=O)n1C2)COC(=O)[C@]3(O)CC [SN-38] (first compound max 1 µM, 7x7, partner max 0.3 µM) . Could you help?
# output 0.929

# input Hello, I am looking for reported combination Emax with HCC1954 (Breast Carcinoma) for COc1nnc2ccc(N3CCC(c4ccc(OCCN5CCN(C)C(=O)[C@H]5C)cc4)CC3)nn12 [AZD5153] + CCN(CCO)CCCOc1ccc2c(Nc3cc(CC(=O)Nc4cccc(F)c4)[nH]n3)ncnc2c1 [AZD2811] (first compound max 1 µM, 7x7, partner max 1 µM) . Could you help?
# output 0.263

# input Hello, I am looking for reported combination Emax with HCC1954 (Breast Carcinoma) for Cc1c2c(nn1C)CSCc1cc(n(C)n1)CSc1cc(c3ccccc3c1)OCCCc1c(C(=O)O)n(C)c3c-2c(Cl)ccc13 [AZD5991] + Cc1cc2ncnn2cc1Nc1ncc2c(n1)n(C1CCOCC1)c(=O)n2C [AZD7648] (first compound max 1 µM, 7x7, partner max 10 µM) . Could you help?
# output 0.992

# input Hello, I am looking for reported combination Emax with HCC1954 (Breast Carcinoma) for C[C@@H](c1ccc2nccn2c1)n1nnc2ncc(-c3cnn(C)c3)nc21 [Savolitinib] + CN(CC[C@H](CSC1=CC=CC=C1)NC2=C(C=C(C=C2)S(=O)(=O)NC(=O)C3=CC=C(C=C3)N4CCC(CC4)[C@H](C5=CC=CC=C5C6=CC=C(C=C6)Cl)O)S(=O)(=O)C(F)(F)F)CCO [AZD4320] (first compound max 1 µM, 7x7, partner max 1 µM) . Could you help?
# output 0.412

# input Hello, I am looking for reported combination Emax with HCC1954 (Breast Carcinoma) for Cc1cc2ncnn2cc1Nc1ncc2c(n1)n(C1CCOCC1)c(=O)n2C [AZD7648] + CCN(CCO)CCCOc1ccc2c(Nc3cc(CC(=O)Nc4cccc(F)c4)[nH]n3)ncnc2c1 [AZD2811] (first compound max 10 µM, 7x7, partner max 1 µM) . Could you help?
# output 0.342

# input Hello, I am looking for reported combination Emax with HCC1954 (Breast Carcinoma) for Cc1nc(Nc2ncc(C(=O)Nc3c(C)cccc3Cl)s2)cc(N2CCN(CCO)CC2)n1 [Dasatinib] + CC(=O)Nc1cccc(-n2c(=O)n(C3CC3)c(=O)c3c(Nc4ccc(I)cc4F)n(C)c(=O)c(C)c32)c1 [Trametinib] (first compound max 2 µM, 7x7, partner max 1 µM) . Could you help?
# output 0.279

# input Hello, I am looking for reported combination Emax with HCC1954 (Breast Carcinoma) for CS(=O)(=O)CCNCc1ccc(-c2ccc3ncnc(Nc4ccc(OCc5cccc(F)c5)c(Cl)c4)c3c2)o1 [Lapatinib] + NC1(c2ccc(-c3nc4ccn5c(=O)[nH]nc5c4cc3-c3ccccc3)cc2)CCC1 [MK-2206] (first compound max 10 µM, 7x7, partner max 10 µM) . Could you help?
# output 0.939

# input Hello, I am looking for reported combination Emax with HCC1954 (Breast Carcinoma) for CC1(C)CCC(CN2CCN(c3ccc(C(=O)NS(=O)(=O)c4ccc(NCC5CCOCC5)c([N+](=O)[O-])c4)c(Oc4cnc5[nH]ccc5c4)c3)CC2)=C(c2ccc(Cl)cc2)C1 [Venetoclax] + CN(C)CCCOc1ccc(-c2ccc3ncc4c(c3c2)n(C2CCOCC2)c(=O)n4C)cn1 [AZD0156] (first compound max 1 µM, 7x7, partner max 1 µM) . Could you help?
# output 0.162

# input Hello, I am looking for reported combination Emax with HCC1954 (Breast Carcinoma) for Cn1cnc2c(F)c(Nc3ccc(Br)cc3Cl)c(C(=O)NOCCO)cc21 [Selumetinib] + CC(C)n1c(=O)n(C)c2cnc3cc(F)c(-c4ccc(OCCCN5CCCCC5)nc4)cc3c21 [AZD1390] (first compound max 10 µM, 7x7, partner max 0.3 µM) . Could you help?
# output 0.227

# input Hello, I am looking for reported combination Emax with HCC1954 (Breast Carcinoma) for C=CCn1c(=O)c2cnc(Nc3ccc(N4CCN(C)CC4)cc3)nc2n1-c1cccc(C(C)(C)O)n1 [AZD1775] + C1CN(CCC1(C(=O)N[C@@H](CCO)C2=CC=C(C=C2)Cl)N)C3=NC=NC4=C3C=CN4 [Capivasertib] (first compound max 3 µM, partner max 3 µM) . Could you help?
# output 0.914

# input Hello, I am looking for reported combination Emax with HCC1954 (Breast Carcinoma) for COc1cccc(OCCCN)c1-c1cc(Nc2cnc(C#N)cn2)n[nH]1 [Prexasertib] + Cc1cc2ncnn2cc1Nc1ncc2c(n1)n(C1CCOCC1)c(=O)n2C [AZD7648] (first compound max 1 µM, 7x7, partner max 10 µM) . Could you help?
# output 0.843

# input Hello, I am looking for reported combination Emax with HCC1954 (Breast Carcinoma) for Cc1cc2ncnn2cc1Nc1ncc2c(n1)n(C1CCOCC1)c(=O)n2C [AZD7648] + C=CCn1c(=O)c2cnc(Nc3ccc(N4CCN(C)CC4)cc3)nc2n1-c1cccc(C(C)(C)O)n1 [AZD1775] (first compound max 10 µM, partner max 1 µM) . Could you help?
# output 0.483

# input Hello, I am looking for reported combination Emax with HCC1954 (Breast Carcinoma) for COc1nnc2ccc(N3CCC(c4ccc(OCCN5CCN(C)C(=O)[C@H]5C)cc4)CC3)nn12 [AZD5153] + Cc1c2c(nn1C)CSCc1cc(n(C)n1)CSc1cc(c3ccccc3c1)OCCCc1c(C(=O)O)n(C)c3c-2c(Cl)ccc13 [AZD5991] (first compound max 1 µM, 7x7, partner max 1 µM) . Could you help?
# output 0.956

# input Hello, I am looking for reported combination Emax with HCC1954 (Breast Carcinoma) for Cc1c2c(nn1C)CSCc1cc(n(C)n1)CSc1cc(c3ccccc3c1)OCCCc1c(C(=O)O)n(C)c3c-2c(Cl)ccc13 [AZD5991] + Cn1cnc2c(F)c(Nc3ccc(Br)cc3Cl)c(C(=O)NOCCO)cc21 [Selumetinib] (first compound max 1 µM, 7x7, partner max 3 µM) . Could you help?
# output 0.982
